# Tested on: K-562 leukemia
# PROTOCOL_DESCRIPTION: NCI-60 one-dose screen, 48 h
# CONDITIONS: 10 µM unless noted
The panel holds about 83,000 compounds, 20% with a hit somewhere; the sample as a whole holds those more often. Active and inactive are the calls of the source. Rule for the calls: active = growth percent below 10; inactive = the rest.
One label from this list, please: active, inactive

1) C/C(Cc1ccc(Cl)cc1)=C(\c1ccc(OCCN2CCCCCC2)cc1)c1ccc(OC(=O)C2CCCCC2)cc1; inactive
2) Fc1ccc(Cc2ccc(F)cc2)cc1; inactive
3) Cn1c2ccccc2c2c3c(c4c5ccccc5[nH]c4c21)C(=O)N(N)C3=O; inactive
4) CCCCCCCCCCCCCCCCNCCC[C@@H](C)[C@H]1CC[C@H]2[C@@H]3[C@H](OCCCN)C[C@@H]4C[C@H](OCCCN)CC[C@]4(C)[C@H]3C[C@H](OCCCN)[C@]12C; active
5) C[C@@H]1CCC2=C(CCC[C@]2(C)C(=O)O)[C@@]1(C)CCc1ccoc1; inactive
6) O=C(Nc1ccc(Nc2cc(Nc3ccccc3)ncn2)cc1)Nc1cc(C(F)(F)F)ccc1F; inactive

Please find the next compound below.
Recorded call for COC1/C=C\OC2(C)Oc3c(C)c(O)c4c(O)c(c(CN(C)CCO)c(O)c4c3C2=O)NC(=O)/C(C)=C\C=C/C(C)C(O)C(C)C(O)C(C)C(OC(C)=O)C1C (configuration not stated) ? inactive
